B1: ANKRD40 (parent)
chain: YQELLRVCCCELGVNPDQVEKIRK

variants of: B1; assay: protein stability index of a GFP-peptide fusion (GPS, HEK-293T) (PSI 1-6); higher = more stable; conditions: c terminus: a fixed tail appended;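 also: lentivirally expressed fusions sorted by FACS into six bins by GFP to DsRed ratio, PSI derived from sequencing read proportions per bin multiplied by bin number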
Catalogue of variants with associated protein stability index
Give only the figure.

ALTERATION	REPORTED_VALUE
C8F	1.44
N15H	2.75
V19Y	2.26
R23F	1.55
I22A	2.02
D17Y	2.01

Indicate its recorded protein stability index; the variant in question is L12H
1.88

// fetch protein stability index given entry E20C
1.56

Return value of protein stability index for input E3M , no commentary.
1.64

Give protein stability index for E20N
1.99

Fill in protein stability index for record V19C
2.1
